test system: M. tuberculosis (H37Rv); experiment: microbe, parasite or virus in culture; format: cell-based, Mycobacterium tuberculosis; conditions: Mycobacterium tuberculosis, H37RV; read-out: Wk2_ 7H9/DPPC/ cholesterol/BSA/ Tyloxapol MIC
// returns f unless MIC is strictly below 0.6 µM, in which case t

[Q] Lab log: compare recorded MIC with 0.6 µM; is it strictly lower for `CCN(CC)c1ncnc2sc(-c3c(F)c(F)c(F)c(F)c3F)nc12` ?
[A] f

[Q] Lab log: compare recorded MIC with 0.6 µM; is it strictly lower for `Cc1nc(C(=O)OC(C)(C)C)c(NC(=O)c2c(F)c(F)c(F)c(F)c2F)o1` ?
[A] t

[Q] Lab log: compare recorded MIC with 0.6 µM; is it strictly lower for `CCOC(=O)c1nc(C)oc1NC(=O)c1cc(F)c(F)c(F)c1` ?
[A] f

[Q] Lab log: compare recorded MIC with 0.6 µM; is it strictly lower for `COC(=O)c1ccncc1NC(=O)c1c(F)c(F)c(F)c(F)c1F` ?
[A] f

[Q] Lab log: compare recorded MIC with 0.6 µM; is it strictly lower for `CCOC(=O)c1c(NC(=O)c2c(F)c(F)c(F)c(F)c2F)ncn1C` ?
[A] f
